target: T1, human CCR8 (human, UniProt P51685 1-355); assay: flow blocking, PBMC CCR8+CD4+; competitor PE-AB10
T1 construct: Native CCR8 on human PBMC (CCR8+ CD3+ or CCR8+ CD4+ lymphocytes); also called chemokine (C-C motif) receptor 8
T1 sequence (P51685 whole entry): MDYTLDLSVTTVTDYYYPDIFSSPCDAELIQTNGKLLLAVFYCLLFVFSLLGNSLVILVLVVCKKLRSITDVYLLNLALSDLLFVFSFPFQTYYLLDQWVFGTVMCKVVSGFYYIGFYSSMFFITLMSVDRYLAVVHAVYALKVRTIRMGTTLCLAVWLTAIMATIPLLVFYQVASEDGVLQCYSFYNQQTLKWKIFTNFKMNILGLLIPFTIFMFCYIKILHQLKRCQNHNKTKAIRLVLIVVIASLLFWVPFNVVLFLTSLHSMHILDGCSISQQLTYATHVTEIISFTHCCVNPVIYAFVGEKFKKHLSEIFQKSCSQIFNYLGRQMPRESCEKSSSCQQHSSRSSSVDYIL
This listing pairs binders with measured % Positive cells.
Write it as a number; the unit % goes unstated.

Consider the following illustrative entries.
1) AB4 (antibody, V domains shown, Hybridoma monoclonal; also called antibody 4; clone 4) VH: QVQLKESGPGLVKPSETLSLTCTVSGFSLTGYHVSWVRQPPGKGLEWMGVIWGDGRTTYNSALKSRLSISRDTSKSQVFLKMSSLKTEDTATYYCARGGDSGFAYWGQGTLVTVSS VL: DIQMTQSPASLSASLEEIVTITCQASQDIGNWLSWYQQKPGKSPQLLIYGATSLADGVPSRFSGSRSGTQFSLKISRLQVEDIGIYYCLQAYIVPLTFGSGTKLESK: 1.47
2) AB11 (antibody, V domains shown, Hybridoma monoclonal; also called antibody 11; clone 11) VH: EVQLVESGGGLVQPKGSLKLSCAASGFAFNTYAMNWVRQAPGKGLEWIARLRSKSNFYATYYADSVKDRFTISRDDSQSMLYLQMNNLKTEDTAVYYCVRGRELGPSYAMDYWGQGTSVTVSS VL: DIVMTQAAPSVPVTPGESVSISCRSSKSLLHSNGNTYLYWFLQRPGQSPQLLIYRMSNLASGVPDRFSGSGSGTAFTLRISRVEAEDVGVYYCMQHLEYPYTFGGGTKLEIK: 1.52

What measured % Positive cells goes with AB1 (antibody, V domains shown, Hybridoma monoclonal (mouse or rat); Same VH/VL entries as AB2; also called antibody 1; clone 1) VH: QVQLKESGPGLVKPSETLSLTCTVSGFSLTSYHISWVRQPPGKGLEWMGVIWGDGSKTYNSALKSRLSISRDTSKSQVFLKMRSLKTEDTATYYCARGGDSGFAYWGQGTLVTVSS VL: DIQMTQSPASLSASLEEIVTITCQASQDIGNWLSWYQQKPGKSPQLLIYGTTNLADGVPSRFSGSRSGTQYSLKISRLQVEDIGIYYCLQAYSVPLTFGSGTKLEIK ?
1.43
